ASSAY_NAME: Pharmacokinetics of psilocin and 4-HIAA in plasma of healthy volunteers after a single oral dose of 25 mg psilocybin (LC-MS/MS)
Assay type: in vivo, human
RECORDED_CONDITIONS: human, plasma, po, 25 mg, plasma, three healthy volunteers, oral dose of 25 mg psilocybin; read-out: Cmax ± SD
Known Cmax of a selection of compounds
# unit: ng/mL | format: bare number

COMPOUND: CN(C)CCc1c[nH]c2cccc(O)c12 [psilocin]
UNIT: ng/mL
READOUT_VALUE: 19.2

Task item: Param item = O=C(O)Cc1c[nH]c2cccc(O)c12 [4-HIAA, 4-hydroxyindole-3-acetic acid] ; retrieve measured Cmax.
Reply: 137

----------
ASSAY_NAME: Pharmacokinetics of psilocin and 4-HIAA in plasma of healthy volunteers after a single oral dose of 25 mg psilocybin (LC-MS/MS)
Format: in vivo, human
RECORDED_CONDITIONS: human, plasma, po, 25 mg, average of three healthy volunteers, oral 25 mg psilocybin; read-out: maximal plasma level (Cmax)
Known Cmax of a selection of compounds

COMPOUND: CN(C)CCc1c[nH]c2cccc(O)c12
Cmax: 19.2 ng/mL

Task item: Param item = O=C(O)Cc1c[nH]c2cccc(O)c12 [4-HIAA, 4-hydroxyindole-3-acetic acid] ; retrieve measured Cmax.
Reply: 137 ng/mL

----------
ASSAY_NAME: Pharmacokinetics of psilocin and 4-HIAA in plasma of healthy volunteers after a single oral dose of 25 mg psilocybin (LC-MS/MS)
Assay type: in vivo, human
RECORDED_CONDITIONS: human; area under the plasma concentration time curve until 7 h post treatment; oral 25 mg psilocybin
Method: To examine the application of the developed method, psilocin and 4-HIAA concentrations were quantified in plasma samples of three healthy volunteers receiving a single oral dose of 25 mg psilocybin. This is a moderate to high dose currently used in clinical phase 2-3 studies. […] Study, calibration, and QC samples were processed as described before. In addition, the total amount of glucuronide conjugated psilocin and 4-HIAA was determined similar to the protocol of Kamata et al. (2006). […]
PROPERTY_LABEL: AUC(0-t)

Task item: Param item = O=C(O)Cc1c[nH]c2cccc(O)c12 [4-HIAA, 4-hydroxyindole-3-acetic acid] ; retrieve measured AUC(0-t).
Reply: 372 ng·h/mL

Task item: Param item = `CN(C)CCc1c[nH]c2cccc(O)c12` ; retrieve measured AUC(0-t).
Reply: 61.2 ng·h/mL

----------
ASSAY_NAME: Pharmacokinetics of psilocin and 4-HIAA in plasma of healthy volunteers after a single oral dose of 25 mg psilocybin (LC-MS/MS)
Format: in vivo, human
RECORDED_CONDITIONS: human; plasma, three healthy volunteers, oral dose of 25 mg psilocybin
Known half-life of a selection of compounds
# unit: h | format: bare number

COMPOUND: CN(C)CCc1c[nH]c2cccc(O)c12
half-life [h]: 2.12

# context switch: different compound, same half-life
Task item: Param item = O=C(O)Cc1c[nH]c2cccc(O)c12 [4-HIAA, 4-hydroxyindole-3-acetic acid] ; retrieve measured half-life.
Reply: 2.32
